B1: Azoarcus group I ribozyme (parent)
chain: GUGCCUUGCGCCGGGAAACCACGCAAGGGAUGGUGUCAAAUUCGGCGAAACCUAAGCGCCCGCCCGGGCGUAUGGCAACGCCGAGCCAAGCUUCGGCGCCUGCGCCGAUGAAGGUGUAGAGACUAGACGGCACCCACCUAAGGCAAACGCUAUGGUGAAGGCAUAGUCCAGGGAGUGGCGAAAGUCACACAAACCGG

variants of: B1; assay: reverse-splicing fitness (ratio to wild type); higher = more active; in vitro selection; Mg2+ level not given
Please mark fulfilled if the recorded reverse-splicing fitness is equal to or greater than 0.01, and not fulfilled if it falls below.

Qu. Could you verify whether the entry C82A A111C A120G A145U C150A U176A shows reverse-splicing fitness of no less than 0.01?
Ans. fulfilled

Qu. Can you handle C82A C150G U176A next?
Ans. fulfilled

Qu. Can you handle C82U A111U A120C A145G C150G C169U U176A next?
Ans. fulfilled

Qu. Can you handle A120U A145U C150G U176C next?
Ans. fulfilled

Qu. Can you handle C82G A111U A120G C150U C169U U176C next?
Ans. fulfilled

Qu. Can you handle C82G A120C C150U C169A U176C next?
Ans. fulfilled

Qu. Can you handle C82U A111C A120U C150G C169A next?
Ans. not fulfilled

Qu. Can you handle A111C A120U A145U C150A next?
Ans. fulfilled

Qu. Can you handle C82U A111C A120G A145U C150U C169A next?
Ans. not fulfilled

Qu. Can you handle C82A A111C A120U A145U C150A next?
Ans. not fulfilled

Qu. Can you handle C82U A111G A120C A145C C150G C169U U176A next?
Ans. not fulfilled

Qu. Can you handle C82U A120G A145C C150A U176G next?
Ans. not fulfilled

Qu. Can you handle C82G A120G A145U C150A C169G U176G next?
Ans. not fulfilled

Qu. Can you handle C82A A145U C150U C169U U176A next?
Ans. fulfilled

Qu. Can you handle C82G A120U A145C C150G C169A U176C next?
Ans. not fulfilled

Qu. Can you handle C82A A120G A145U C150A C169A U176C next?
Ans. fulfilled

Qu. Can you handle A111C A120U A145G C150U C169A U176C next?
Ans. not fulfilled

Qu. Can you handle A111C A120U A145C C150U U176A next?
Ans. fulfilled

Qu. Can you handle C82A A120U C150G C169A U176A next?
Ans. not fulfilled

Qu. Can you handle C82G A120U A145C C169A U176G next?
Ans. not fulfilled

Qu. Can you handle C82A A111G A120G A145U C169G next?
Ans. fulfilled

Qu. Can you handle C82G A111U A145C C150G C169A next?
Ans. not fulfilled

Qu. Can you handle C82U A120C A145C C150U U176C next?
Ans. fulfilled

Qu. Can you handle A111C A120C A145U C150A C169G U176G next?
Ans. not fulfilled

Qu. Can you handle C82A A111C A145G C169U next?
Ans. fulfilled

Qu. Can you handle C82U A120U A145C C169A next?
Ans. not fulfilled

Qu. Can you handle C82G A111G A120G A145G C150A C169A U176A next?
Ans. fulfilled

Qu. Can you handle C82G A111G A120U C150G C169G next?
Ans. not fulfilled

Qu. Can you handle C82U A120C A145C C150G U176G next?
Ans. not fulfilled

Qu. Can you handle A111U A120U A145G C150U C169G U176C next?
Ans. not fulfilled

Qu. Can you handle C82U A120C C169G next?
Ans. not fulfilled

Qu. Can you handle A111G A120G A145C C150G C169U U176G next?
Ans. not fulfilled

Qu. Can you handle A120C A145C C150G C169A U176G next?
Ans. not fulfilled

Qu. Can you handle C82G A111C C150G C169G U176G next?
Ans. not fulfilled

Qu. Can you handle A111G A120G A145G C150G C169G U176C next?
Ans. fulfilled

Qu. Can you handle C82U A111G A120U C150G C169A U176C next?
Ans. not fulfilled

Qu. Can you handle C82A A111G A145U C150U C169A next?
Ans. not fulfilled

Qu. Can you handle C82U A111U A120C C150U C169U U176A next?
Ans. fulfilled
